- assay.remarks: Microsomal stability assay, mouse liver microsomes (MLM)
- Format: in vitro ADME
- assay.context: 0.5 mg/mL protein, 1 μM substrate, 37° C.
Note to self: microsomal CLint at 1 μM under 40 µL/min/mg means yes (1), ties and anything higher get no (0).

Solved entries:
compound	category
O=C1CCc2c(Oc3ccc4c(c3)CC(c3nc(-c5cncc(C(F)(F)F)c5)c[nH]3)CO4)ccnc2N1 (stereo not drawn) [Compound 103]	yes (1)
CCn1nc(C)cc1-c1c[nH]c(C2COc3ccc(Oc4ccnc5c4CCC(=O)N5)cc3C2)n1 (stereo not drawn) [Compound 124]	yes (1)
O=C(CN1CCOCC1)Nc1cc(Oc2ccc3c(c2)CC(c2nc(-c4ccccc4)c[nH]2)CO3)ccn1 (stereo not drawn) [Compound 149]	no (0)
O=C(Nc1nccc(Oc2ccc3c(c2)CC(c2nc(-c4ccccc4)c[nH]2)CO3)n1)C1CC1 (stereo not drawn) [Compound 148]	no (0)
c1ccc(-c2c[nH]c(C3COc4ccc(Oc5ccnc(Nc6ccccn6)c5)cc4C3)n2)cc1 (stereo not drawn) [Compound 140]	no (0)
CCc1cc(-c2c[nH]c(C3COc4ccc(Oc5ccnc6c5CCC(=O)N6)cc4C3)n2)n(C2CC2)n1 (stereo not drawn) [Compound 113]	yes (1)
Cc1cc(-c2c[nH]c(C3COc4ccc(Oc5ccnc6c5CCC(=O)N6)cc4C3)n2)ccn1 (stereo not drawn) [Compound 117]	yes (1)
c1ccc(-c2c[nH]c(C3COc4ccc(Oc5ccnc(Nc6nccs6)c5)cc4C3)n2)cc1 (stereo not drawn) [Compound 141]	yes (1)

Is microsomal CLint at 1 μM strictly under 40 µL/min/mg for the entry Cc1ccc(-c2c[nH]c(C3COc4ccc(Oc5ccnc6c5CCC(=O)N6)cc4C3)n2)s1 (stereo not drawn) [Compound 110] ?
no (0)

Please state whether microsomal CLint at 1 μM is below 40 µL/min/mg for Cn1ncc2ccc(-c3c[nH]c(C4COc5ccc(Oc6ccnc7c6CCC(=O)N7)cc5C4)n3)cc21 (stereo not drawn) [Compound 130]
yes (1)

Answer whether the compound O=C1CCc2c(Oc3ccc4c(c3)CC(c3nc(-c5cncc(C(F)F)c5)c[nH]3)CO4)ccnc2N1 (stereo not drawn) [Compound 105] has microsomal CLint at 1 μM strictly less than 40 µL/min/mg
yes (1)

Is microsomal CLint at 1 μM strictly under 40 µL/min/mg for the entry CC(C)c1cc(-c2c[nH]c(C3COc4ccc(Oc5ccnc6c5CCC(=O)N6)cc4C3)n2)ccn1 (stereo not drawn) [Compound 120] ?
no (0)

----------
- assay.remarks: Plasma protein binding assay, human plasma (hPPB)
- Assay type: in vitro ADME
- assay.context: 5 μM, equilibrium dialysis 4 hours 37° C.
Would you mind telling me the reported hPPB (% free) of each entry?
One number for each entry, in % free.

// worked examples, hPPB (% free) included
compound	result.unit	observed.result
O=C1CCc2c(Oc3ccc4c(c3)CC(c3nc(-c5ccc(Cl)cc5)c[nH]3)CO4)ccnc2N1 (stereo not shown)	% free	0.5
O=C(Nc1cc(Oc2ccc3c(c2)CC(c2nc(-c4ccccc4)c[nH]2)CO3)ccn1)C1CC1 (stereo not shown)	% free	0.2

Now, please, on to the next compound.
I am curious: what hPPB (% free) value has been reported for CN(C)Cc1cc(-c2c[nH]c(C3COc4ccc(Oc5ccnc6c5CCC(=O)N6)cc4C3)n2)cc(C(F)(F)F)c1 (stereo not shown) ?
1.9
